Target: Cytochrome P450 1A2 (Homo sapiens)
Assay: Cytochrome P450 Family 1 Subfamily A Member 2 (CYP1A2) small molecule antagonists: luciferase reporter qHTS assay (AID 1671199); note: nearly all actives have a fitted effect of over 50% in size
Details: P450-Glo CYP1A2 enzyme, luciferin luminescence, 1 h; series mostly up to 115 µM
Results filed as inconclusive are left out. Active and inactive are the calls of the source. Calls come from the whole dose curve; as a rule, active = well fitted inhibition curve with a large enough effect in the repeat runs; inconclusive = weak or mixed curves; inactive = no such curve, though single readings can be large or run the other way.
Your answer must be one of the following: active, inactive

For CN1C(=O)[C@@H](NC(=O)c2cc3ccccc3[nH]2)N=C(c2ccccc2)c2ccccc21 , what call appears in the results of this test?
inactive

Request: CC(Cc1ccc(OCC(=O)O)cc1)NCC(O)c1csc(C(F)(F)F)n1 (configuration not stated)
active

Request: O=NN(CCO)CCO
inactive

Request: COP(=S)(OC)Oc1ccc([N+](=O)[O-])c(C)c1
active

Request: O=C1C2(Cl)C3(Cl)C4(Cl)C(Cl)(Cl)C5(Cl)C3(Cl)C1(Cl)C5(Cl)C24Cl (configuration not stated)
inactive

Request: O=P(Cl)(Cl)Cl
active

Request: CN=C=O
active

Request: CCN1CCC2(CC1)COc1cc3c(cc12)N(C(=O)c1ccc(-c2ccc(-c4nnc(C)o4)cc2C)cc1)CC3
inactive

Request: O=S1(=O)OCC2C(CO1)C1(Cl)C(Cl)=C(Cl)C2(Cl)C1(Cl)Cl (configuration not stated)
active

Request: FC(F)C(F)(F)OCC(Cn1cncn1)c1ccc(Cl)cc1Cl (configuration not stated)
active

Request: COCCC#N
inactive

Request: CCCCN(CCCC)C(=S)[S-].CCCCN(CCCC)C(=S)[S-].[Ni+2]
inactive

Request: N#CCCl
active

Request: O=C(O)CCCCCCNC1c2ccccc2CCc2ccccc21
inactive

Request: COc1ccc2c3c1O[C@H]1[C@H](O)CC[C@H]4[C@@H](C2)N(C)CC[C@@]341
inactive

Request: CN1CCc2cc3c(cc2C1O)OCO3 (configuration not stated)
active

Request: CN1CCc2cc(Cl)c(O)cc2[C@H]2c3ccccc3CC[C@@H]21
inactive

Request: ClCBr
inactive

Request: COC(=O)N(OC)c1ccccc1COc1ccn(-c2ccc(Cl)cc2)n1
active

Request: CCC(C)c1cccc(C(C)CC)c1O (configuration not stated)
active

Request: Oc1cc(Cl)cc(Cl)c1
active

Request: O=[N+]([O-])C(Br)Br
inactive

Request: O=C(NC(=O)c1c(F)cccc1F)Nc1ccc(Oc2ccc(C(F)(F)F)cc2Cl)cc1F
inactive

Request: c1ccc2nc(N3CCNCC3)ccc2c1
active

Request: NC(=O)C(Cl)Cl
inactive

Request: CCC1(CC)C(=O)N=C(O)NC1=O
inactive

Request: COP(=O)(OC)Oc1ccc([N+](=O)[O-])cc1
inactive

Request: CSC(C)(C)/C=N/O
inactive

Request: Nc1ccccc1-c1ccccc1
active

Request: CC1(C)[C@H](/C=C2\CCSC2=O)[C@@H]1C(=O)OCc1coc(Cc2ccccc2)c1
active

Request: O=[N+]([O-])c1ccc(Cl)c(Cl)c1Cl
active

Request: Nc1nc(N)nc(Cl)n1
inactive

Request: S=C=Nc1ccccc1
active

Request: CCN(CC)C(=S)S
active

Request: CC1(C)C(C=C(Cl)Cl)C1C(=O)OC(C#N)c1ccc(F)c(Oc2ccccc2)c1 (configuration not stated)
inactive

Request: NC1CCC(CC2CCC(N)CC2)CC1 (configuration not stated)
inactive

Request: O=C(N[C@@H]1N=C(c2ccccc2F)c2cccc3c2N(CC3)C1=O)c1cc2ccccc2[nH]1
inactive

Request: CCC(C)Br (configuration not stated)
inactive

Request: CC1CCCC1
active

Request: c1csc(-c2ccc(-c3cccs3)s2)c1
active

Request: C[C@@H]1CC2=CC(=O)CC[C@@H]2[C@H]2CC[C@@]3(C)[C@@H](CC[C@]3(C)O)[C@@H]21
inactive

Request: CCN(CC)CCN1C(=O)CN=C(c2ccccc2F)c2cc(Cl)ccc21
inactive

Request: O=C1C(Cl)=C(Cl)C(=O)C(Cl)=C1Cl
active

Request: Nc1c(Cl)c(Cl)c(Cl)c(Cl)c1Cl
active

Request: CC(Cc1ccc2c(c1)OCO2)NO (configuration not stated)
active

Request: CCC(C)Nc1c([N+](=O)[O-])cc(C(C)(C)C)cc1[N+](=O)[O-] (configuration not stated)
active

Request: N#Cc1c2ccccc2cc2ccccc12
active

Request: O=S(=O)(O)F
inactive

Request: Cc1ccc(C)c2ccccc12
inactive

Request: CC(Cc1ccc(O)cc1)NCC(O)c1cc(O)cc(O)c1 (configuration not stated)
inactive

Request: O=S1OCC2C(CO1)C1(Cl)C(Cl)=C(Cl)C2(Cl)C1(Cl)Cl (configuration not stated)
inactive

Request: CCC1COC(Cn2cncn2)(c2ccc(Cl)cc2Cl)O1 (configuration not stated)
active

Cited source for all entries: PubChem BioAssay (Tox21)
